Tested on: MDA-MB-231
protocolSummary: Antiproliferative activity against human MDA-MB-231 cells measured after 96 hrs
Type: functional, cell-based
conditionContext: MDA-MB-231, 96 h
pIC50 values by entry
Quick note: pIC50 means taking -log10 of the concentration in moles per liter.

Some entries whose results are on file:
{"smilesRepr": "CCCCCCCCCCC/C(=N\\O)c1cc(-c2ccc(O)c(F)c2)ccc1O", "system": "MDA-MB-231", "pIC50": 4.35}
{"smilesRepr": "COc1nn(-c2ccc(NC(=O)OCc3ccccc3)c(C)c2)c(=O)o1", "system": "MDA-MB-231", "pIC50": 4.38}

Now take the following compound into account.
Find the recorded pIC50 belonging to "CCCCCCCCCCCCC/C(=N\O)c1cc(-c2ccc(O)c(F)c2)ccc1O" and report it. 4.14

* * *

system: Monoglyceride lipase (Homo sapiens, UniProt Q99685)
Sequence (Q99685 whole entry): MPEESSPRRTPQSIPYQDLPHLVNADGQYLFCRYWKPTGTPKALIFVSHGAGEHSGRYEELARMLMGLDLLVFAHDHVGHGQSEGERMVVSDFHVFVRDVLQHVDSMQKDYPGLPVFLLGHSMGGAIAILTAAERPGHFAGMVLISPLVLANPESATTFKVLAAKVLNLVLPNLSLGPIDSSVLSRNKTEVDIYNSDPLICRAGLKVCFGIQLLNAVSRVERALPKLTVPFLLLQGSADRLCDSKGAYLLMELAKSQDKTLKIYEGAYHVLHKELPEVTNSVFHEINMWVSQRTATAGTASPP
protocolSummary: Inhibition of recombinant human C-terminal His-tagged MAGL expressed in Escherichia coli using 4-NPA as substrate pretreated with substrate 15 mins followed by enzyme addition measured after 30 mins
assayMetric: pIC50
Quick note: pIC50 means taking -log10 of the concentration in moles per liter.

Find the recorded pIC50 belonging to "CCCCCCCCCCCCC/C(=N\O)c1cc(-c2ccc(O)c(F)c2)ccc1O" and report it. 6.17

* * *

system: Cannabinoid receptor 1 (Homo sapiens, UniProt P21554)
Sequence (P21554 whole entry): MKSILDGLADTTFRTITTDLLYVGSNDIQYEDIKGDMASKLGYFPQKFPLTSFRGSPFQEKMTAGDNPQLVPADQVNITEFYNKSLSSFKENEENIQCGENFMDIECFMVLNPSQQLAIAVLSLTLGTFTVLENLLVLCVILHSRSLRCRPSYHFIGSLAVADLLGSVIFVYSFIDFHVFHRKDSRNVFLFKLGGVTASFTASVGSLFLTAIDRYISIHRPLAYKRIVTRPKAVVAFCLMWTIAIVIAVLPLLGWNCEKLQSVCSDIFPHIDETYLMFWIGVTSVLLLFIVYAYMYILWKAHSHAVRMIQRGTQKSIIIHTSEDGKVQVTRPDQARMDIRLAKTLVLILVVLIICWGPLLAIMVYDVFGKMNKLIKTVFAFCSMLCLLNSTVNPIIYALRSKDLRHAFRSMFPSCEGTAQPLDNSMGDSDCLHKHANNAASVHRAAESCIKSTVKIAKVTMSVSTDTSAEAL
protocolSummary: Displacement of [3H]CP55940 from recombinant human CB1 expressed crude membranes after 90 mins by liquid scintillation counting method
IC50 values by entry
Please state the number and follow it with the unit.

{"smilesRepr": "CCCCCCCCCCC/C(=N\\O)c1cc(-c2ccc(O)c(F)c2)ccc1O", "IC50": "2.6 µM"}

Now take the following compound into account.
Find the recorded IC50 belonging to "CCCCCCCCCCCCC/C(=N\O)c1cc(-c2ccc(O)c(F)c2)ccc1O" and report it. 4.1 µM

* * *

system: Monoglyceride lipase (Homo sapiens, UniProt Q99685)
protocolSummary: Inhibition of recombinant human C-terminal His-tagged MAGL expressed in Escherichia coli using 4-NPA as substrate measured after 30 mins
IC50 values by entry
Report only the number, with the unit µM understood.

{"smilesRepr": "CCCCCCCCCCCCC/C(=N\\O)c1cc(-c2ccc(O)c(F)c2)ccc1O", "recordedValue": 0.68}
{"smilesRepr": "CCCCCCCCCCC/C(=N\\O)c1cc(-c2ccc(O)c(F)c2)ccc1O", "recordedValue": 0.71}
{"smilesRepr": "C/C(=N\\O)c1cc(-c2ccc(O)c(F)c2)ccc1O", "recordedValue": 34}
{"smilesRepr": "CC/C(=N\\O)c1cc(-c2ccc(O)c(F)c2)ccc1O", "recordedValue": 11}

Find the recorded IC50 belonging to "CCCC/C(=N\O)c1cc(-c2ccc(OC)cc2)ccc1O" and report it. 119

* * *

system: Monoglyceride lipase (Homo sapiens)
protocolSummary: Inhibition of recombinant human C-terminal His-tagged MAGL expressed in Escherichia coli using 4-NPA as substrate pretreated with substrate 15 mins in presence of DTT followed by enzyme addition measured after 30 mins
assayMetric: pIC50
Quick note: pIC50 means taking -log10 of the concentration in moles per liter.

Find the recorded pIC50 belonging to "CCCCCCCCCCCCC/C(=N\O)c1cc(-c2ccc(O)c(F)c2)ccc1O" and report it. 6.15

The values you see were collected from ChEMBL document CHEMBL4270621.
